test-protocol: Solubility
Assay type: physicochemical
measurement-conditions: pH 6.2, aqueous buffer; read-out: Solubility (ug/mL) pH 6.2
quantity: solubility (µg/mL)
Return type: number; implicit unit µg/mL.

get_value(item= `Nc1ccc(NC(=O)c2ccc(C(=O)Nc3ccc(N)cc3)cc2)cc1` , readout=solubility) returns 0.22

----------
experimental-system: UniProt P30291
test-protocol: ELISA based assay: WEE1 phosphorylation of biotinylated H2B peptide spanning Tyr37
Format: biochemical
Set-up: A full length human WEE1 kinase that was enzymatically active was purified from insect cell
measurement-conditions: Table 1; several values in a cell are repeat determinations
Overview of recorded ELISA Inhibition (%) for various compounds
Return type: number; implicit unit %.

- smiles: "CC(C)(C)OC(=O)Nc1ccc(NC(=O)c2ccc(C(=O)Nc3ccc(NC(=O)OC(C)(C)C)c(F)c3)cc2)cc1F"
  ELISA Inhibition (%): "−57"
- smiles: "CC(C)(C)OC(=O)N1CCC(NC(=O)c2ccc(C(=O)NC3CCN(C(=O)OC(C)(C)C)CC3)nc2)CC1"
  ELISA Inhibition (%): 28
- smiles: "Cl.NCc1ccc(NC(=O)c2ccc(C(=O)Nc3ccc(CN)cc3)o2)cc1"
  ELISA Inhibition (%): 4

--- query ---
get_value(item= `Nc1ccc(NC(=O)[C@H]2CC[C@H](C(=O)Nc3ccc(N)cc3)CC2)cc1` , readout=ELISA Inhibition (%)) returns −39

----------
experimental-system: full length human WEE1 kinase (Homo sapiens)
test-protocol: ELISA based assay: WEE1 phosphorylation of biotinylated H2B peptide spanning Tyr37
Assay type: biochemical
Parameters: A full length human WEE1 kinase that was enzymatically active was purified from insect cell
measurement-conditions: Table 1; several values in a cell are repeat determinations
quantity: ELISA Inhibition (%)
Return type: number; implicit unit %.

Examples with their reported ELISA Inhibition (%) follow.
- compound: "Cl.Nc1ccc(NC(=O)C2CCC(C(=O)Nc3ccc(N)c(F)c3)CC2)cc1F (stereo not shown)"
  ELISA Inhibition (%): 20
- compound: "Cl.Nc1ccc(CNC(=O)C2CCC(C(=O)NCc3ccc(N)cc3)CC2)cc1 (stereo not shown)"
  ELISA Inhibition (%): "−14"
- compound: "Nc1ccc(NC(=O)c2cccc(C(=O)Nc3ccc(N)cc3)c2)cc1"
  ELISA Inhibition (%): 12

get_value(item= `CC(C)(C)OC(=O)Nc1ccc(NC(=O)c2ccc(C(=O)Nc3ccc(NC(=O)OC(C)(C)C)c(F)c3)o2)cc1F` , readout=ELISA Inhibition (%)) returns 25

----------
test-protocol: LogD
Format: physicochemical
measurement-conditions: pH 7.4
quantity: logD

get_value(item= Nc1ccc(NC(=O)c2ccc(C(=O)Nc3ccc(N)cc3)cc2)cc1 [SG5-061] , readout=logD) returns 0.98

----------
experimental-system: full length human WEE1 kinase (Homo sapiens, UniProt P30291)
Sequence (P30291 whole entry): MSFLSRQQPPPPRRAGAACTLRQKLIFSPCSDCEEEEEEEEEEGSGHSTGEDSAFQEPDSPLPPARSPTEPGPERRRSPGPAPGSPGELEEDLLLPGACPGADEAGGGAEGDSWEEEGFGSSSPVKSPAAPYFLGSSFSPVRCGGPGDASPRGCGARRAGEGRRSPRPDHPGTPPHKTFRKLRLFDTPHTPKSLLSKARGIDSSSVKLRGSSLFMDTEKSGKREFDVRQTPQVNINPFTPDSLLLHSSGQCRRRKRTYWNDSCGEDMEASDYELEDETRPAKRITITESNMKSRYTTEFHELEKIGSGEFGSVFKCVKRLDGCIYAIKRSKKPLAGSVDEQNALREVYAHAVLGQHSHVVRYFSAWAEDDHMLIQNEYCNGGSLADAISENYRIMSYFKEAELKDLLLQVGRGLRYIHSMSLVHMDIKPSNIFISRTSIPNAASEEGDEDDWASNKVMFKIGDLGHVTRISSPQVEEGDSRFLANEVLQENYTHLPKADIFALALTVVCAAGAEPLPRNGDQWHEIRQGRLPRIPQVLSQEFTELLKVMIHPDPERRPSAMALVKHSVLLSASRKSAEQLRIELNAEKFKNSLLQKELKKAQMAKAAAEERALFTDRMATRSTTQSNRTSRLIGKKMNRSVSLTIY
test-protocol: ELISA based assay: WEE1 phosphorylation of biotinylated H2B peptide spanning Tyr37
Assay type: biochemical
Design: A full length human WEE1 kinase that was enzymatically active was purified from insect cell
measurement-conditions: Table 1; several values in a cell are repeat determinations
Overview of recorded ELISA Inhibition (%) for various compounds

Examples with their reported ELISA Inhibition (%) follow.
- compound: "CC(C)(C)OC(=O)Nc1ccc(NC(=O)C2CCC(C(=O)Nc3ccc(NC(=O)OC(C)(C)C)c(Cl)c3)CC2)cc1Cl (stereo not drawn)"
  experimental-system: "full length human WEE1 kinase (Homo sapiens, UniProt P30291)"
  ELISA Inhibition (%): "25%"
- compound: "Cc1cc(C(=O)Nc2ccc(CNC(=O)OC(C)(C)C)cc2)c(C)cc1C(=O)Nc1ccc(CNC(=O)OC(C)(C)C)cc1"
  experimental-system: "full length human WEE1 kinase (Homo sapiens, UniProt P30291)"
  ELISA Inhibition (%): "18%"
- compound: "Cc1cc(C(=O)Nc2ccc(N)c(Cl)c2)c(C)cc1C(=O)Nc1ccc(N)c(Cl)c1.Cl"
  experimental-system: "full length human WEE1 kinase (Homo sapiens, UniProt P30291)"
  ELISA Inhibition (%): "2%"
- compound: "CC(C)(C)OC(=O)Nc1ccc(NC(=O)c2cccc(C(=O)Nc3ccc(NC(=O)OC(C)(C)C)cc3)c2)cc1"
  experimental-system: "full length human WEE1 kinase (Homo sapiens, UniProt P30291)"
  ELISA Inhibition (%): "−14%"
- compound: "Nc1ccc(NC(=O)c2cccc(C(=O)Nc3ccc(N)cc3)n2)cc1"
  experimental-system: "full length human WEE1 kinase (Homo sapiens, UniProt P30291)"
  ELISA Inhibition (%): "2%"

get_value(item= `CC(C)(C)OC(=O)N1CCC(NC(=O)c2ccc(C(=O)NC3CCN(C(=O)OC(C)(C)C)CC3)o2)CC1` , readout=ELISA Inhibition (%)) returns −27%

get_value(item= `Cc1cc(C(=O)NCc2ccc(NC(=O)OC(C)(C)C)cc2)c(C)cc1C(=O)NCc1ccc(NC(=O)OC(C)(C)C)cc1` , readout=ELISA Inhibition (%)) returns −4%

get_value(item= `CC(C)(C)OC(=O)Nc1ccc(NC(=O)[C@H]2CC[C@H](C(=O)Nc3ccc(NC(=O)OC(C)(C)C)cc3)CC2)cc1` , readout=ELISA Inhibition (%)) returns −7%

get_value(item= `Cc1cc(C(=O)Nc2ccc(NC(=O)OC(C)(C)C)cc2)c(C)cc1C(=O)Nc1ccc(NC(=O)OC(C)(C)C)cc1` , readout=ELISA Inhibition (%)) returns −23%

get_value(item= CC(C)(C)OC(=O)N1CCC(NC(=O)C2CCC(C(=O)NC3CCN(C(=O)OC(C)(C)C)CC3)CC2)CC1 (stereo not drawn) , readout=ELISA Inhibition (%)) returns 28%

----------
test-protocol: Solubility
Type: physicochemical
measurement-conditions: aqueous buffer; pH 5.0; read-out: Solubility (ug/mL) pH 5.0
quantity: solubility
Answer by giving the amount and then stating its unit.

get_value(item= `Nc1ccc(NC(=O)c2ccc(C(=O)Nc3ccc(N)cc3)cc2)cc1` , readout=solubility) returns 0.13 µg/mL

----------
experimental-system: UniProt:P30291
test-protocol: ELISA based assay: WEE1 phosphorylation of biotinylated H2B peptide spanning Tyr37
Type: biochemical
Set-up: A full length human WEE1 kinase that was enzymatically active was purified from insect cell
measurement-conditions: Table 1; several values in a cell are repeat determinations
Overview of recorded ELISA Inhibition (%) for various compounds
Return type: number; implicit unit %.

Examples with their reported ELISA Inhibition (%) follow.
- compound: "CC(C)(C)OC(=O)Nc1ccc(NC(=O)c2ccc(C(=O)Nc3ccc(NC(=O)OC(C)(C)C)c(Cl)c3)cc2)cc1Cl [SG5-133-2]"
  quantity: "ELISA Inhibition (%)"
  value-measured: "−38"
- compound: "CC(C)(C)OC(=O)Nc1ccc(NC(=O)c2ccc(C(=O)Nc3ccc(NC(=O)OC(C)(C)C)c(Cl)c3)nc2)cc1Cl [SG5-140-7]"
  quantity: "ELISA Inhibition (%)"
  value-measured: 12
- compound: "CC(C)(C)OC(=O)Nc1ccc(NC(=O)c2ccc(C(=O)Nc3ccc(NC(=O)OC(C)(C)C)cc3)o2)cc1 [SG5-107]"
  quantity: "ELISA Inhibition (%)"
  value-measured: "−8"
- compound: "CC(C)(C)OC(=O)Nc1ccc(NC(=O)c2ccc(C(=O)Nc3ccc(NC(=O)OC(C)(C)C)c(F)c3)nc2)cc1F [SG5-140-3]"
  quantity: "ELISA Inhibition (%)"
  value-measured: 22
- compound: "Cl.Cl.Cl.Nc1ccc(NC(=O)c2ccc(C(=O)Nc3ccc(N)c(F)c3)nc2)cc1F [SG5-147-3]"
  quantity: "ELISA Inhibition (%)"
  value-measured: 50

Record CC(C)(C)OC(=O)Nc1ccc(CNC(=O)C2CCC(C(=O)NCc3ccc(NC(=O)OC(C)(C)C)cc3)CC2)cc1 (stereo not shown) [SG5-140-16] / UniProt:P30291, ELISA Inhibition (%) recorded as 8

Record Cl.Nc1ccc(NC(=O)C2CCC(C(=O)Nc3ccc(N)c(Cl)c3)CC2)cc1Cl (stereo not shown) [SG5-147-8] / UniProt:P30291, ELISA Inhibition (%) recorded as 17

----------
experimental-system: UniProtKB P30291
test-protocol: ELISA based assay: WEE1 phosphorylation of biotinylated H2B peptide spanning Tyr37
Assay type: biochemical
Parameters: A full length human WEE1 kinase that was enzymatically active was purified from insect cell
measurement-conditions: Table 1; several values in a cell are repeat determinations
quantity: ELISA Inhibition (%)
Return type: number; implicit unit %.

Examples with their reported ELISA Inhibition (%) follow.
- compound: "Cl.Nc1ccc(NC(=O)c2ccc(C(=O)Nc3ccc(N)c(F)c3)o2)cc1F"
  quantity: "ELISA Inhibition (%)"
  value-measured: 37
- compound: "Cl.O=C(NC1CCNCC1)C1CCC(C(=O)NC2CCNCC2)CC1 (stereo not shown)"
  quantity: "ELISA Inhibition (%)"
  value-measured: 22
- compound: "Cl.NCc1ccc(NC(=O)C2CCC(C(=O)Nc3ccc(CN)cc3)CC2)cc1 (stereo not shown)"
  quantity: "ELISA Inhibition (%)"
  value-measured: "−9"
- compound: "CC(C)(C)OC(=O)Nc1ccc(NC(=O)c2cccc(C(=O)Nc3ccc(NC(=O)OC(C)(C)C)cc3)n2)cc1"
  quantity: "ELISA Inhibition (%)"
  value-measured: "−39"
- compound: "CC(C)(C)OC(=O)NCc1ccc(NC(=O)c2ccc(C(=O)Nc3ccc(CNC(=O)OC(C)(C)C)cc3)o2)cc1"
  quantity: "ELISA Inhibition (%)"
  value-measured: 13
- compound: "Cl.O=C(NC1CCNCC1)c1ccc(C(=O)NC2CCNCC2)o1"
  quantity: "ELISA Inhibition (%)"
  value-measured: "−5"

--- query ---
get_value(item= `Cc1cc(C(=O)Nc2ccc(N)cc2)c(C)cc1C(=O)Nc1ccc(N)cc1` , readout=ELISA Inhibition (%)) returns 14
